Ref: PubChem BioAssay (NCI)

System: UACC-257 melanoma
Experiment: NCI tumour cell line growth inhibition, 48 h
What TGI was measured for each of the following?
Give your result in µM as a bare value.

## Task For `CNC(=O)c1cc(Oc2cccc3nc(NC(=O)Nc4cc(C(F)(F)F)cc(C(F)(F)F)c4)ccc23)ccn1` , what is its reported TGI?
## Result 44.1

## Task For CCOC(=O)C(C)Sc1nnc(COc2ccc(Cl)cc2)n1-c1ccccc1 (centres undefined) , what is its reported TGI?
## Result 47.3

## Task For `O/N=C(/C(Cl)=C(Cl)Cl)C(Cl)Cl` , what is its reported TGI?
## Result 40.6

## Task For `CC[C@@]1(OC(=O)CN(C)C)C(=O)OCc2c1cc1n(c2=O)Cc2cc3c(N)cccc3nc2-1` , what is its reported TGI?
## Result 0.981

## Task For `Cc1cccc(NC(=O)O/N=C(\Cl)C(C)C)c1` , what is its reported TGI?
## Result 31.5

## Task For `c1ccc2cc3c(cc2c1)Nc1c2ccccc2nc2cccc-3c12` , what is its reported TGI?
## Result 2.92

---

Test system: SW-620 colon
Assay: NCI tumour cell line growth inhibition, 48 h; in the data active = GI50 below about 0.43 µM; inactive = the rest
Give your call using only these classes: active, inactive

## Task Kindly provide the recorded test outcome for the following compound: `Cc1ccc(S(=O)(=O)OCC#CCOS(=O)(=O)c2ccc(C)cc2)cc1`
## Result inactive

## Task Kindly provide the recorded test outcome for the following compound: `Cc1cc(C(=O)/C=C/c2ccc[nH]2)ccc1-n1ccc(C(F)(F)F)n1`
## Result inactive

## Task Kindly provide the recorded test outcome for the following compound: `CCCCCCCCCCCCCCCCCCNCc1ccc(Cl)cc1`
## Result inactive

## Task Kindly provide the recorded test outcome for the following compound: `N#Cc1cnc2cc(OC[C@@H](O)CO)c(NC(=O)C3CCCC3)cc2c1Nc1ccc(OCc2cccc(F)c2)c(Cl)c1`
## Result inactive

## Task Kindly provide the recorded test outcome for the following compound: `CC(=O)Oc1ccc2c(c1)[C@@]1(C)CCCC(C)(C)[C@@H]1CC2`
## Result inactive

## Task Kindly provide the recorded test outcome for the following compound: `COc1cc(-n2cc(-c3ccccc3)[nH]c2=O)cc(OC)c1OC`
## Result inactive

## Task Kindly provide the recorded test outcome for the following compound: `CC[C@@]1(OC(=O)CN(C)C)C(=O)OCc2c1cc1n(c2=O)Cc2cc3c(N)cccc3nc2-1`
## Result active

## Task Kindly provide the recorded test outcome for the following compound: `O=C(CSCC(=O)N/N=C/c1ccccc1O)N/N=C\c1ccccc1O`
## Result inactive

## Task Kindly provide the recorded test outcome for the following compound: N#CC1=C(N)NC(=S)NC1c1ccc(-c2ccc(-c3nc4ccccc4o3)cc2)s1 (centres undefined)
## Result inactive

## Task Kindly provide the recorded test outcome for the following compound: Clc1ccc(C2CC(c3cccc(Nc4ccncc4)c3)=NN2c2ccc(Cl)cc2)cc1 (centres undefined)
## Result inactive

## Task Kindly provide the recorded test outcome for the following compound: `C=C1c2ccccc2C(=O)c2c1c1c(C(=O)OC)c(OC(=O)OCc3ccc([N+](=O)[O-])cc3)ccc1n2Cc1ccccc1`
## Result inactive

## Task Kindly provide the recorded test outcome for the following compound: `O=S(=O)(NCCNc1nccc(-c2c(-c3ccc(F)c(O)c3)nc3sccn23)n1)c1ccc(Cl)cc1`
## Result inactive

## Task Kindly provide the recorded test outcome for the following compound: `Cc1ccc(C(=O)NCCCOc2ccc(N3C(N)=NC(N)=NC3(C)C)cc2Cl)cc1S(=O)(=O)F`
## Result inactive

## Task Kindly provide the recorded test outcome for the following compound: `CC(C)(C)OC(=O)NCCCCn1c2c(c3ccccc3c1=O)C(=O)c1ccccc1-2`
## Result inactive

---

System: UACC-257 melanoma
Test: NCI tumour cell line growth inhibition, 48 h
What TGI was measured for each of the following?
Give your result in µM as a bare value.

## Task For `O=C1/C(=C/c2ccc3c(c2)OCCO3)CCC/C1=C\c1ccc2c(c1)OCCO2` , what is its reported TGI?
## Result 59.7

## Task For `CCCOc1cc2ccccc2cc1C(=O)Nc1nc(NC)c2c(ccc3nccc32)[nH]1` , what is its reported TGI?
## Result 2.56

## Task For C=C1C(=O)O[C@H]2C1C[C@@H](O)/C(C)=C/CC[C@@]1(C)O[C@H]21 (stereo not given in full) , what is its reported TGI?
## Result 46.8

## Task For `S=C=Nc1ccc(CSc2nc3ccccc3[nH]2)cc1` , what is its reported TGI?
## Result 34.1

## Task For `COC(=O)c1c(C)[nH]c2c1C(=O)C(=O)c1nc(C)c(C)nc1-2` , what is its reported TGI?
## Result 24.6

## Task For O=[N+]([O-])C1=Cc2cc(Cl)ccc2OC1c1cccc2ccccc12 (stereo not given) , what is its reported TGI?
## Result 3.4

---

Test system: SK-MEL-2 melanoma
Assay: NCI tumour cell line growth inhibition, 48 h
measured parameter: TGI (µM)
Give your result in µM as a bare value.

## Task For CC(C)(C)OC(=O)N1CC(CCl)c2ccc(O)cc21 (stereo not given) , what is its reported TGI?
## Result 3.2

## Task For `NCCCOc1cc2ccccc2cc1C(=O)Nc1ccc(Cl)cc1OC(=O)c1cc2ccccc2cc1OCCCN` , what is its reported TGI?
## Result 1.2

## Task For `[N-]=[N+]=NCCCn1c2c(c3ccc([N+](=O)[O-])cc3c1=O)C(=O)c1cc3c(cc1-2)OCO3` , what is its reported TGI?
## Result 22.3

---

System: LOX IMVI melanoma
Experiment: NCI tumour cell line growth inhibition, 48 h
measured parameter: TGI (µM)
Give your result in µM as a bare value.

## Task For `S=C=Nc1ccc(CSc2nc3ccccc3[nH]2)cc1` , what is its reported TGI?
## Result 35.6

## Task For `CN(C)CCC(/C=C/c1ccccc1)=N\Nc1ccc(Cl)c(Cl)c1` , what is its reported TGI?
## Result 3.71

## Task For Cc1cn(C2C=CC(COP(=O)(OCc3ccc([N+](=O)[O-])o3)N(C)CCCCCl)O2)c(=O)[nH]c1=O (centres undefined) , what is its reported TGI?
## Result 13.5

## Task For CC(C)c1ccc(C2NC(=S)NC3=C2c2ccccc2C3=O)cc1 (centres undefined) , what is its reported TGI?
## Result 35.1

---

System: KM20L2 colon
Assay: NCI tumour cell line growth inhibition, 48 h
measured parameter: TGI

## Task For `CCC1C(C#N)=C(O)NC(O)=C1C#N` , what is its reported TGI?
## Result > 100 µM

## Task For CC[C@@]1(OC(=O)C(N)CCCCN)C(=O)OCc2c1cc1n(c2=O)Cc2cc3ccccc3nc2-1 (stereo not given in full) , what is its reported TGI?
## Result 12.5 µM

## Task For `Cn1c(=O)nc2n(-c3ccc(Cl)cc3)c(-c3ccccc3)c(-c3ccccc3)nc-2c1=O` , what is its reported TGI?
## Result > 100 µM

## Task For `N#Cc1c(-c2ccccc2)cc(-c2ccc(N)cc2)[nH]c1=O` , what is its reported TGI?
## Result > 100 µM

## Task For `Cc1cccc(C)c1NC(=O)CCC/C(CC(=O)c1ccc(F)cc1)=N\NC(=O)C(=O)NN` , what is its reported TGI?
## Result > 100 µM

---

Tested on: M14 melanoma
Assay: NCI tumour cell line growth inhibition, 48 h
Record Satisfied whenever TGI is at 30 µM or higher; record Not satisfied when lower.

## Task Can `N#CCCN(CCC#N)c1ccc(C(N=Nc2ccc(Cl)cc2)=Nc2ccccc2)cc1` be said to have TGI at or above 30 µM?
## Result Not satisfied

## Task Can `CN(C)CCNCc1ccc2c(-c3ccccc3)nc3cc(Cl)c(Cl)cc3n12` be said to have TGI at or above 30 µM?
## Result Not satisfied

## Task Can `O=C(O)c1nc2ccc(Cl)cc2[nH]c1=O` be said to have TGI at or above 30 µM?
## Result Satisfied

## Task Can `Cc1cccc(NC(=O)O/N=C(\Cl)C(C)C)c1` be said to have TGI at or above 30 µM?
## Result Not satisfied

## Task Can `CNCC/C=C1\c2cc3c(cc2-c2c1c1cc(OC)c(OC)cc1c(=O)n2C)OCO3` be said to have TGI at or above 30 µM?
## Result Not satisfied

## Task Can `COc1ccc(C(=O)NC2=C(Cl)C(=O)c3ccccc3C2=O)cc1` be said to have TGI at or above 30 µM?
## Result Not satisfied

## Task Can C=C(Cl)/C(=C\Cl)CCC(Cl)C(C)C (centres undefined) be said to have TGI at or above 30 µM?
## Result Satisfied

## Task Can `O=C1c2c(Br)sc(Br)c2[C@@H](Cl)[C@H]1Cl` be said to have TGI at or above 30 µM?
## Result Satisfied

## Task Can `O=C1/C(=C/c2ccc3c(c2)OCCO3)CCC/C1=C\c1ccc2c(c1)OCCO2` be said to have TGI at or above 30 µM?
## Result Satisfied
